// provenance: BindingDB's records for doi:10.1074/jbc.M110.181594

Biological target: 2'-deoxynucleoside 5'-phosphate N-hydrolase 1 (Rattus norvegicus, UniProt O35820)
Sequence (O35820 whole entry): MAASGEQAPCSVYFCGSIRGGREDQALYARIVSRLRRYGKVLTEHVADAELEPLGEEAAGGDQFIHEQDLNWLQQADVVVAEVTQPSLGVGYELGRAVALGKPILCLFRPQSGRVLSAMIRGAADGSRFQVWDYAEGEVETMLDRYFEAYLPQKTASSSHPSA
Measurement kind: pKi
Kindly note that pKi refers to -log10 of the concentration in mol/L and answer with the value alone.

>  <Compound>
Nc1nc(=O)c2ncn(COCCOP(=O)(O)O)c2[nH]1 [Acyclovir 5'-monophosphate]

>  <Assay system>
2'-deoxynucleoside 5'-phosphate N-hydrolase 1 (Rattus norvegicus, UniProt O35820)

>  <pKi>
4.24

$$$$
>  <Compound>
NC(=O)c1ncn(C2OC(COP(=O)(O)O)C(O)C2O)c1N (centres undefined)

>  <Assay system>
2'-deoxynucleoside 5'-phosphate N-hydrolase 1 (Rattus norvegicus, UniProt O35820)

>  <pKi>
4.28

$$$$
>  <Compound>
O=c1[nH]c(=O)c2ncn(C3OC(COP(=O)(O)O)C(O)C3O)c2[nH]1 (centres undefined)

>  <Assay system>
2'-deoxynucleoside 5'-phosphate N-hydrolase 1 (Rattus norvegicus, UniProt O35820)

>  <pKi>
4.27

$$$$

// below: pKi requested for another compound
# input Could you share which pKi value was measured for Nc1ncnc2c1ncn2C1OC(COP(O)(O)=S)C(O)C1O (centres undefined) ?
# output 4.85
